tested on: Wolbachia pipientis; test: Anti-Wolbachia Cell-Based Screen; format: functional; design: scale not given: in the data most compounds retested in dose-response had high values; settings: 5 µM
Screen size: about 48,000 compounds; about 13,000 (27%) showed an effect of 50% or more. The list shows a part of the results.

- Cpd smiles: "CCN(CC)S(=O)(=O)c1ccc2c(c1)N(Cc1ccncc1)C(=O)CS2"
  Percent Effect / %: 122
- Cpd smiles: "CCN(Cc1cccc(-c2ccncc2)c1)S(N)(=O)=O"
  Percent Effect / %: -1.235
- Cpd smiles: "CCc1cc(NCCNC(C)=O)nc(N2CCCC2)n1"
  Percent Effect / %: 3.61
- Cpd smiles: "CCN(CC)S(=O)(=O)c1ccc2c(c1)N(Cc1ccccn1)C(=O)CS2"
  Percent Effect / %: 124.5
- Cpd smiles: "CCN(CC)S(=O)(=O)c1ccc2c(c1)N(Cc1cccnc1)C(=O)CS2"
  Percent Effect / %: 103.1
- Cpd smiles: "CCS(=O)(=O)c1ccc2oc([C@H]3CCN(Cc4cccnc4)C3)nc2c1"
  Percent Effect / %: -5.049

====

tested on: Wolbachia pipientis; experiment: Anti-Wolbachia Cell-Based Screen; type: functional; parameters: scale not given: in the data most compounds retested in dose-response had high values; conditions: 5 µM
Hit rate of the full screen: of about 48,000 compounds, about 13,000 (27%) showed an effect of 50% or more. Some of the results follow.

- Molecule: "CCn1ccnc1C1CCN(C(=O)C(O)c2ccc(Cl)cc2)CC1 (centres undefined)"
  Percent Effect, %: -5.147
- Molecule: "COCCN1C(=O)C2(CCC(C(=O)Nc3ccccn3)CC2)N=C1C (centres undefined)"
  Percent Effect, %: 12.9
- Molecule: "CC(C)(C)c1ncc(CNCC2CN(C3CC3)CCO2)s1 (centres undefined)"
  Percent Effect, %: 77.82
- Molecule: "CCC(CCNCc1cnc(C2CCC2)s1)N1CCCC1=O (centres undefined)"
  Percent Effect, %: 3.115
- Molecule: "CC(C)(C)c1ncc(CNCC2CCCn3ccnc32)s1 (centres undefined)"
  Percent Effect, %: -12.55
- Molecule: "CCC1=NC2(CCC(C(=O)Nc3ccc(C)nc3)CC2)C(=O)N1C (centres undefined)"
  Percent Effect, %: 107.3
- Molecule: "CCc1ccc(S(=O)(=O)N2CC[C@@](O)(CCOC)[C@H](C)C2)cc1"
  Percent Effect, %: -34.1
- Molecule: "CCc1nc(C)sc1CN1CC[C@](C)(O)[C@H](C)C1"
  Percent Effect, %: 84.46
- Molecule: "COCCN1C(=O)C2(CCC(C(=O)Nc3cccc(C)c3)CC2)N=C1C (centres undefined)"
  Percent Effect, %: -14.6
- Molecule: "CNC(=O)c1noc(CN2CC[C@](C)(O)[C@H](C)C2)n1"
  Percent Effect, %: 23.29
- Molecule: "COCCN1C(=O)C2(CCC(C(=O)Nc3ccc(C)cc3)CC2)N=C1C (centres undefined)"
  Percent Effect, %: -12.68
- Molecule: "CCC1=NC2(CCC(C(=O)Nc3ccc(F)cc3)CC2)C(=O)N1C (centres undefined)"
  Percent Effect, %: 104.8
- Molecule: "CN(Cc1ccsc1)C(=O)CN1CCCCC1Cn1cccn1 (centres undefined)"
  Percent Effect, %: -3.818
- Molecule: "CCc1nc(C)sc1CN1C[C@@H](C)[C@@](C)(O)C1"
  Percent Effect, %: 98.2
- Molecule: "CCc1nc(C)sc1CN1CC[C@](O)(CC)[C@H](O)C1"
  Percent Effect, %: 116.1
- Molecule: "CCc1nc(C)sc1CN1CC[C@@](O)(CCOC)[C@H](C)C1"
  Percent Effect, %: 97.23
- Molecule: "O=S(=O)(c1cccnc1)N1C[C@@H]2CC[C@H](C1)N(Cc1ccccn1)C2"
  Percent Effect, %: 0.4176
- Molecule: "CCN(CC)c1ncc(CNCC2CCCn3ccnc32)s1 (centres undefined)"
  Percent Effect, %: 9.152
- Molecule: "CCN1CCOC(CNCc2cnc(N(CC)CC)s2)C1 (centres undefined)"
  Percent Effect, %: 78.01
- Molecule: "Cc1nc2c(c(N3C[C@@H](C)[C@@](C)(O)C3)n1)CCC2"
  Percent Effect, %: 13.84
- Molecule: "C[C@@H]1CN(Cc2c[nH]c(CC3CCCC3)n2)CC[C@]1(C)O"
  Percent Effect, %: 8.823
- Molecule: "O=C(CCc1ccsc1)N1CCCCC1Cn1cccn1 (centres undefined)"
  Percent Effect, %: 114.6
- Molecule: "CCc1nc(C)sc1CNC1CCN(Cc2ccccc2)C1 (centres undefined)"
  Percent Effect, %: -80.76
- Molecule: "CCN(CC1CN(Cc2ncc(C)o2)CCO1)c1cccnn1 (centres undefined)"
  Percent Effect, %: 0.3637

Cited source: ChEMBL document CHEMBL3988442
